test system: human PKK mRNA; assay: Dose-dependent antisense inhibition of human PKK in HepaRG cells, 0.11-3.00 uM (Example 6); assay type: cell-based; conditions: electroporation, 1.00 μM, approx. 16 hours, relative to untreated control cells
Strand notation (5' to 3'): a small letter for the sugar, then the base; units joined by * are phosphorothioate-linked, units joined directly phosphodiester-linked; [ ] holds rarer units or linkages, { } end groups; capitals alone tell only the bases. e = 2'-O-(2-methoxyethyl) (MOE); k = constrained ethyl (cEt); [5mC] = 5-methylcytosine; d = 2'-deoxy (DNA)
Label 1.0 when percent inhibition of PKK mRNA, 1.00 μM is at or above 80%; otherwise label 0.0.

substance: 547849 (antisense eA*eA*kT*dG*dT*d[5mC]*dT*d[5mC]*dG*dA*dT*dG*dG*k[5mC]*kA*eA) [compound 547849]
classAssignment: 0.0
--
substance: 548486 (e[5mC]*eG*kT*dG*dG*dT*dT*dA*dG*d[5mC]*d[5mC]*dT*dG*kA*k[5mC]*eA; antisense) [compound 548486]
classAssignment: 0.0
--
substance: 548201 (eT*eG*kT*dT*d[5mC]*dT*dA*dA*dT*dG*dT*dG*dG*k[5mC]*kA*e[5mC]; antisense) [compound 548201]
classAssignment: 0.0
--
substance: 548043 (eA*eT*kT*dT*dG*dT*dG*dA*dG*dA*dA*dA*dG*kG*kT*eG; antisense) [compound 548043]
classAssignment: 1.0
--
substance: 548583 (eG*eG*kG*dA*dA*dT*dT*dT*dA*dT*dG*d[5mC]*dT*kG*k[5mC]*e[5mC]; antisense) [compound 548583]
classAssignment: 1.0
--
substance: 547948 (eA*eG*kG*dA*dA*d[5mC]*dT*dT*dG*dG*dT*dG*dT*kG*k[5mC]*e[5mC]; antisense) [compound 547948]
classAssignment: 1.0
--
substance: 548174 (eT*e[5mC]*kT*d[5mC]*dA*dG*dT*dT*dG*d[5mC]*dG*dA*d[5mC]*k[5mC]*kT*e[5mC]; antisense) [compound 548174]
classAssignment: 0.0
--
substance: 547877 (antisense eA*eA*k[5mC]*dA*d[5mC]*dT*dG*d[5mC]*dT*dA*dA*d[5mC]*d[5mC]*kT*kT*eA) [compound 547877]
classAssignment: 1.0
--
substance: 548005 (eA*eG*kA*dG*dT*dA*dA*d[5mC]*d[5mC]*dA*dG*dA*dG*k[5mC]*kT*e[5mC]; antisense) [compound 548005]
classAssignment: 0.0
--
substance: 548195 (eT*eT*k[5mC]*dT*dG*d[5mC]*d[5mC]*dA*dA*d[5mC]*dA*dG*dT*kT*kT*e[5mC]; antisense) [compound 548195]
classAssignment: 0.0
--
substance: 548128 (eA*eT*kT*dG*d[5mC]*d[5mC]*dT*dA*dG*dA*d[5mC]*dT*d[5mC]*kT*kG*eG; antisense) [compound 548128]
classAssignment: 0.0
--
substance: 548425 (antisense eA*eA*k[5mC]*dA*dG*dT*dA*dT*d[5mC]*dA*d[5mC]*dT*dG*kT*k[5mC]*e[5mC]) [compound 548425]
classAssignment: 0.0
